test system: HFF (normal human foreskin fibroblasts); experiment: Methylene blue growth inhibition assay (Assay 2), HFF; format: cell-based; settings: Fibroblast, 72 h, B-Raf wt, Ras wt, 3 days, read-out: IC50 cell growth, HFF
pIC50: −log10 of the molar value.
measure name: pIC50

[
  {
    "given smiles": "CN(C)CCOc1ccc(-c2cc(-c3ccc(Cl)c(O)c3)c(-c3ccncc3)o2)cc1",
    "observed measurement": "< 4.52"
  }
]

###

Target: B-Raf (Homo sapiens)
Sequence (P15056 whole entry): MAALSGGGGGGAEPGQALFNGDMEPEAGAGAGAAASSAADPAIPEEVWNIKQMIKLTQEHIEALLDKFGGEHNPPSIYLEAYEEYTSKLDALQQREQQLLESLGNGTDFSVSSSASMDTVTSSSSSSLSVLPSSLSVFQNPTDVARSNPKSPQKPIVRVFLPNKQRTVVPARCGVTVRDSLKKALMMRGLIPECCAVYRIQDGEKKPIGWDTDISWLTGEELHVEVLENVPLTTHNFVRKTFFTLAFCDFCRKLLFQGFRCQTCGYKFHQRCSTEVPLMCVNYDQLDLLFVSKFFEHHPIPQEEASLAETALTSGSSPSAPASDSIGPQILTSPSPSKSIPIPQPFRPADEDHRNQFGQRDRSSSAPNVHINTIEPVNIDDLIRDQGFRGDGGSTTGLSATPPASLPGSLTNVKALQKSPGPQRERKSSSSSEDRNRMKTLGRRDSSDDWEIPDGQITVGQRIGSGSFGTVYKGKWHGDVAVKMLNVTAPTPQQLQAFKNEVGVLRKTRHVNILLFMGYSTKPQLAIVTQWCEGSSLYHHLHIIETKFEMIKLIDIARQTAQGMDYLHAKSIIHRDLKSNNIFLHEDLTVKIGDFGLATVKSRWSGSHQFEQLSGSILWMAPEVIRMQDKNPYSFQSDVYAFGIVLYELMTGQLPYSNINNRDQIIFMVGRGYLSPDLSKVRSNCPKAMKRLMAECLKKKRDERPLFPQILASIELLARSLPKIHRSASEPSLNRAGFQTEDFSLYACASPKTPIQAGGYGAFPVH
Assay: Fluorescence anisotropy kinase binding assay (Assay 1)
From the text: The activity of compounds of formula (I) as B-Raf inhibitors may be determined by the following in vitro assay: Fluorescence Anisoptrophy Kinase Binding Assay The concentration of kinase enzyme should preferably be >1×Kf. The concentration of fluorescent ligand required will depend on the instrumentation used, and the fluorescent and physicochemical properties. […] Fluorescence anisotropy read in an LJL Acquest fluorescence reader. […]

[
  {
    "given smiles": "CN(C)CCOc1ccc(-c2cc(-c3ccc(Cl)c(O)c3)c(-c3ccncc3)o2)cc1",
    "Kd / nM": 3
  }
]

###

tested on: SKMEL2 (human melanoma); assay: Methylene blue growth inhibition assay (Assay 2), SKMEL2; assay type: cell-based; settings: SK-MEL-2, 72 h, B-Raf wt, [Q61R]N-Ras, 3 days, read-out: IC50 cell growth, SKMEL2

[
  {
    "given smiles": "CN(C)CCOc1ccc(-c2cc(-c3ccc(Cl)c(O)c3)c(-c3ccncc3)o2)cc1",
    "IC50": "> 1400 nM"
  }
]

###

system: Colo205 (colon carcinoma); experiment: Methylene blue growth inhibition assay (Assay 2), Colo205; format: cell-based; conditions: Homo sapiens, COLO 205, 72 h, colorectal cancer, B-Raf V599E, Ras wt, 3 days, read-out: IC50 cell growth, Colo205
measure name: IC50 (µM)

[
  {
    "given smiles": "CN(C)CCOc1ccc(-c2cc(-c3ccc(Cl)c(O)c3)c(-c3ccncc3)o2)cc1",
    "observed measurement": 9.4
  }
]

Numbers sourced from patent US7446106B2.
